Assay: yeast display, Sf9 membrane polyspecificity reagent, FACS + sequencing; frameworks hold sequencing errors
readout_label: polyreactivity (PSR sort gate)

Observe how each entry below is paired with its result.
1) QVQLVESGGGLVQAGGSLRLSCAASGIIYHFNDMGWYRQAPGQERELVASIDSTGSTNYADSVKGRFTLSRDNAKNTVYLQMNSLKPEDTAVYYCAVLNHRVDSVLTRYYYWGQGTQVTVSS; low polyreactivity
2) QVQLVESGGGLVQAVGSLRLSCAASGRIFGPNAMGWYRQAPGKERELVAAITGSGGSTYADSVKGRFTISRDNAKNTVYLQMNSLKPEDTAVYYCAKKTWYSYDWGQGTQVTVSS; high polyreactivity
3) QVQLQESGGGLVQAGGSLRLSCAASGPISRRSTMGWYRQAPGKERELVTAITRGTNTNYADSVKGRFTISRDNAKNTEYLQMYCLKPEDTAVYYCAAYGVLKPSRGDAVFHRYWGQGTQVTVSS; low polyreactivity
4) QVQHVESGGGLVQAGGSLRLSCAASGIIFIVYAMGWYRQAPGKERELVAAISNGGSTYYADSVKGRFTISRDNAKNTVYLQMNSLKPEDTAVYYCAAGGALASQWSKKLYDYWGQGTQVTVSS; low polyreactivity

Read the next record carefully.
Need polyreactivity (PSR sort gate) of QVQLVESGGGLVQAGGSLRLSCAASGRTFYANAMGWYRQAPGKERELVAAISSSGSRTYYADSVKGRFTISRDNAKNTVYLQMNSLKPEDTAVYYCNAAAPYLTRQHWARDYWGQGTQVTVSS , thanks. high polyreactivity

====

Experiment: yeast display, Sf9 membrane polyspecificity reagent, FACS + sequencing; frameworks hold sequencing errors
readout_label: polyreactivity (PSR sort gate)

Observe how each entry below is paired with its result.
1. QVQLVESGGGLVQAGGSLRLSCAASGFIFDTNAMGWSRQAPGKDRELVARISSSAGSTYYAVSVKGRFTISRDNAKNTVYLLMNSLKPEDTAVYYCNADTGLGSLDFDKRDYWGQGTQVTVSS; low polyreactivity
2. QVQLVESGAGLVQAGGSLRLSCAPSGSTFGDNAMGWYRQAPGKERELVAAISSGGGSTYYADSVKGRFTISRDNAKNTVYLQMNSLKPEDTAVYYCAADGTLTLYRYILDYWGQGTQVTVSS; low polyreactivity
3. QVQLVESGGGLVQAGGSLRLSCAATGSIFDYNAMGWYTQAPGKERELVAALTSGGSTNYADSVKGRFTISRDNAMNTVYLQMNSLKPEDTAVYYCAADHDYYPSNLDYWGQGTQVTVSS; low polyreactivity
4. QVQLVESGAGLFQAGGSLRLSCAASGSTFVSYAMGWYRQAPGKEREFVAAITWSGGSTYYADSVKGRFTISRDNAKNTVYLQMNSLKPEDTAVYYCARPYRGSPRYYYWGQGTQVTVSS; high polyreactivity

Read the next record carefully.
Need polyreactivity (PSR sort gate) of QVQLVESGGGLVQAGGSLRVSCAASGSTFSAYAMGWYRPAPGKERELVAAISASGGSTYYADSVKGRFTISRDNAKNTVSLQMNSLKPEDTAVYYCNADRWKYELDYWGQGTQVTVSS , thanks. high polyreactivity

====

Experiment: yeast display, Sf9 membrane polyspecificity reagent, FACS + sequencing; frameworks hold sequencing errors
readout_label: polyreactivity (PSR sort gate)

1. QVQLVESGGGLVQAGGSLRLSCAASGLIFFSYAMGWYRQAPGKERELVAAISRRGGRTYYADSVKGRFTISRDNAKNTVYLQMNSLKPEDTAASYCATYVASHRGDRTYDHWGQCTQVTVSS; low polyreactivity
2. QVQLVESGGRLVQAGGSLRLSCAASGLIFAWYAMGWYRQAPGKQRELVATISWNGDRTYYADSVKVRFTISRDNAKNTVYLQMNSVKPVDSAVYYCAARFGSGFNYWGQGNQVTVSS; high polyreactivity
3. QVQLVESGGGLVQAGGSLRLSCAASGSTISYYAMGWYRQAPGKERELVAAISSRGVITYYADSVKGRFTISRDNAKNTVYLQMNSLKPEDTAVYYCNVDSAWYPYETEDYWGQGTQVTVSS; low polyreactivity
4. QVQLVESGGGLVQAGGSLRLSCAASGFTFSSYAMGWYRQAPGKERELVAAITTRGGTFYADSVKGRFTISRDNAKNTVYLQMNSLKPEDTAVYYCAARRVSGRGYWGQGTQVTVSS; high polyreactivity

Read the next record carefully.
Need polyreactivity (PSR sort gate) of QVQLVESGGGLVQAGGSLRLSCASSGRTFTKYAMGWYRHPPGKESELVAAISRSGGSTYYADSVKGRFTISRDNAKNTVYLQMNSLKPEDTAVYYWAARGQYRYSFGDYSWGQGTQVTVSS , thanks. high polyreactivity
